System: pig erythrocytes
Type: cell-based
Details: pH 7.3
Where no end group is shown, it is not given here.
Reported % hemolysis (100 μM) values follow for various substances
The reply should contain only the number, in %.

Here's what some known entries look like.
[
  {
    "Substance": "GIGKFLKKAKKFGKAFVKILKK-NH2 [MSI-78, Pexiganan]",
    "Display Unit": "%",
    "% hemolysis (100 μM)": 15.2
  },
  {
    "Substance": "KKKKKFIGLFAGGIVLAFKKKK-NH2 [MSI-Seg-Scr]",
    "Display Unit": "%",
    "% hemolysis (100 μM)": 3.9
  },
  {
    "Substance": "KKKKKGIGGLAGGAFVILKKKK-NH2 [MSI-Seg-F2G]",
    "Display Unit": "%",
    "% hemolysis (100 μM)": 1.2
  },
  {
    "Substance": "KKKKKKKGIGFLAFGAFVKILK-NH2 [MSI-N7K]",
    "Display Unit": "%",
    "% hemolysis (100 μM)": 10
  }
]

Now for the substance whose % hemolysis (100 μM) we want.
Ask | Give the measured % hemolysis (100 μM) of KKKKKGIGFLAFGAFVILKKKK-NH2 [MSI-Seg] .
Reply | 16.6

###

Assay: XTT cytotoxicity / LD50 calculation
Type: cell-based, murine
Details: mouse, RAW 264.7 cells (macrophages); peptides 2 h, then XTT 2 h; concentration at which 50% of cells were dead, from linear graph
Where no end group is shown, it is not given here.
Reported CC50 at 2 h values follow for various substances
The reply should contain only the number, in µM.

[
  {
    "Substance": "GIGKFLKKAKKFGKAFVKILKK-NH2 [MSI-78, Pexiganan]",
    "CC50 at 2 h [µM]": 43.1
  }
]

Ask | Give the measured CC50 at 2 h of KKKKKKKGIGFLAFGAFVKILK-NH2 [MSI-N7K] .
Reply | 60.9

###

Tested on: S. aureus ATCC P8538
Format: cell-based, Staphylococcus aureus
Conditions: ATCC P8538, 18 h
Where no end group is shown, it is not given here.
Quantity Kind: MIC S. aureus ATCC P8538 (µM)
The reply should contain only the number, in µM.

Ask | Give the measured MIC S. aureus ATCC P8538 of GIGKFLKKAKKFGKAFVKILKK-NH2 [MSI-78, Pexiganan] .
Reply | 6.25

Ask | For KKKKKGIGGLAGGAFVILKKKK-NH2 [MSI-Seg-F2G] then?
Reply | 25

###

Reported CC50 at 2 h values follow for various substances
Experiment: XTT cytotoxicity / LD50 calculation
Type: cell-based, murine
Conditions: mouse, RAW 264.7 cells (macrophages); peptides 2 h, then XTT 2 h; concentration at which 50% of cells were dead, from linear graph
Where no end group is shown, it is not given here.

Here's what some known entries look like.
[
  {
    "Substance": "KKKKKGIGFLAFGAFVILKKKK-NH2 [MSI-Seg]",
    "Recorded Value": "> 100 µM"
  },
  {
    "Substance": "KKKKKGIGGLAGGAFVILKKKK-NH2 [MSI-Seg-F2G]",
    "Recorded Value": "> 100 µM"
  }
]

Now for the substance whose CC50 at 2 h we want.
Ask | Give the measured CC50 at 2 h of KKKKKFIGLFAGGIVLAFKKKK-NH2 [MSI-Seg-Scr] .
Reply | > 100 µM
